B1: library; a variant is named by its letters at N, in order (parent)
chain: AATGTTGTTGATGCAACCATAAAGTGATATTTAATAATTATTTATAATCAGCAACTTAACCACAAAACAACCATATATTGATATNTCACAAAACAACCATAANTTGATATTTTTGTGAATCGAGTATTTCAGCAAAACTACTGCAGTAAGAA

- Variants of: B1
- method summary: relative integration efficiency (T-RL orientation) vs wild-type transposon end (log2 (normalized fold change)); transposon end mutated: left end; higher = more efficient transposition
- condition notes: with VchCAST RNA-guided transposition machinery (E. coli BL21(DE3) host, lacZ target)
Recorded relative integration efficiency (log2) for the following variants

Field: example entries. Status: answers known.
mutation string	reported result
TA A16C G24T T32G A33C T76A T78G C87A T104A T110A T113A	-0.13
CG A16C	-0.26

Value of relative integration efficiency (log2) reported for the variant CG C63G A64T is 0.104

Value of relative integration efficiency (log2) reported for the variant CG G10C is -0.357
